Test system: 15-PGDH luciferase fusion construct in Vaco503 reporter cell line
assay_protocol: 15-PGDH-luciferase fusion gene reporter induction, V503 cells
Format: cell-based
measurement_context: read-out: V503-3H9-7 reporter activity, % ([…]), V503 reporter cells, […] compound; % induction of luciferase activity over basal level; read-out: V503-3H9-7 reporter activity, % (7.5 μM)
Could you please report measured activation at […] for the items listed next?
Respond with the bare value in %.

The recorded activation at […] for COc1ccc(OC)c(N(CC(=O)Nc2ccncc2)S(=O)(=O)c2ccccc2)c1 is 301

Entry under test: COc1ccc(OC)c(N(CC(=O)Nc2ccnc(Cl)c2)S(=O)(=O)c2ccccc2)c1 . Its activation at […] was 34.3

Measured activation at […], COc1ccc(OC)c(N(CC(=O)Nc2cccnc2)S(=O)(=O)c2ccc(F)cc2)c1 : 204

// COc1ccc(OC)c(N(CC(=O)Nc2cccnc2)S(=O)(=O)c2ccccc2C(F)(F)F)c1 : activation at […] value = 94.6

Lab book: activation at […] of COc1ccc(OC)c(N(CC(=O)Nc2ccccc2Cl)S(=O)(=O)c2ccccc2)c1 noted as 145

Sample COc1ccc(OC)c(NCC(=O)Nc2cccnc2)c1 ; activation at […] observed: 7.54

Reported activation at […] of COc1ccc(OC)c(N(CC(=O)Nc2cccnc2Cl)S(=O)(=O)c2ccccc2)c1 : 107

So for COc1ccc(S(=O)(=O)N(CC(=O)Nc2cccnc2)c2cc(OC)ccc2OC)cc1 , the logged activation at […] turned out to be 183

According to the records, this compound COc1ccc(OC)c(N(CC(N)=O)S(=O)(=O)c2ccccc2)c1 displays activation at […] of 14.4

Form: compound = CCOC(=O)CN(c1cc(OC)ccc1OC)S(=O)(=O)c1ccccc1 ; activation at […] = 131

Reported activation at […] ( COc1ccc(OC)c(N(CC(=O)Nc2cccnc2)S(=O)(=O)c2ccc(C)cc2)c1 ) = 27.3

// COc1ccc(S(=O)(=O)N(CC(=O)Nc2ccncc2)c2cc(OC)ccc2OC)cc1 : activation at […] value = 214

activation at […] recorded for this compound, COc1ccc(OC)c(N(CC(=O)N2CCCc3ccccc32)S(=O)(=O)c2ccccc2)c1 , is 43.9

Looking up COc1ccc(OC)c(N(CC(=O)Nc2cccc(C)c2)S(=O)(=O)c2ccccc2)c1 , I found its activation at […] recorded as 126

Just so you know, measured activation at […] for COc1ccc(OC)c(N(CC(=O)Nc2ccc(Cl)nc2)S(=O)(=O)c2ccccc2)c1 came out at 122

The reported activation at […] of the compound COc1ccc(OC)c(N(CC(=O)N2CCCCC2)S(=O)(=O)c2ccccc2)c1 was -40.6

# activation at […] of COc1ccc(OC)c(N(CC(=O)Nc2cnccn2)S(=O)(=O)c2ccccc2)c1 = 72.4

----------
Provide the reported activation at […] of each item.
Test system: 15-PGDH luciferase fusion construct in V9m reporter cell line
assay_protocol: 15-PGDH-luciferase fusion gene reporter induction, V9m cells
Assay type: cell-based
measurement_context: read-out: V9M-SC3 Reporter activity ([…]) (%), V9m reporter cells, […] compound; % induction of luciferase activity over basal level; read-out: V9M-SC3 Reporter activity (2.5 μM) (%)
Value expressed in %; do not type the unit.

Kindly note the recorded activation at […] for COc1ccc(OC)c(N(CC(=O)Nc2cccnc2)S(=O)(=O)c2ccc(F)cc2)c1 [SW203736] , which is 132

COc1ccc(OC)c(N(CC(=O)N2CCCCCC2)S(=O)(=O)c2ccccc2)c1 [SW208000] has a reported activation at […] of 33.5

Summary for this molecule, COc1ccc(OC)c(N(CC(=O)N(C)c2cccnc2)S(=O)(=O)c2ccccc2)c1 [SW203686] : activation at […] is 15.1

COc1ccc(OC)c(N(CC(=O)Nc2cccnc2)S(=O)(=O)c2ccccc2C(F)(F)F)c1 [SW202944] yielded activation at […] of -0.95

----------
Test system: 15-PGDH luciferase fusion construct in Vaco503 reporter cell line
assay_protocol: 15-PGDH-luciferase fusion gene reporter induction, V503 cells
Assay type: cell-based
measurement_context: read-out: V503-3H9-7 reporter activity, % ([…]), V503 reporter cells, […] compound; % induction of luciferase activity over basal level; read-out: V503-3H9-7 reporter activity, % (7.5 μM)
measure: activation at […]
Give your result as the value with the unit written after it.

So, COc1ccc(OC)c(N(CC(=O)Nc2ccncc2F)S(=O)(=O)c2ccccc2)c1 [SW208004] ? Its activation at […] was 177%

For record COc1ccc(S(=O)(=O)N(CC(=O)N2CCCCC2)c2cc(OC)ccc2OC)cc1 [SW207999] the listed activation at […] is 110%

Quick note, activation at […] for COc1ccc(OC)c(N(CC(=O)N2CCCC2)S(=O)(=O)c2ccccc2)c1 [SW208001] landed at 6.68%

activation at […] for COc1ccc(OC)c(N(C(C)C(=O)Nc2cccnc2)S(=O)(=O)c2ccccc2)c1 (stereo not drawn) [SW202991] is 8.9%

Record COc1ccc(S(=O)(=O)N(CC(=O)N2CCOCC2)c2cc(OC)ccc2OC)cc1 [SW207997] , field activation at […]: 157%

Input COc1ccc(OC)c(N(CC(=O)Nc2cccnc2)S(=O)(=O)c2ccccc2)c1 [SW054384] . Output activation at […]: 157%

----------
Test system: 15-PGDH luciferase fusion construct in V9m reporter cell line
assay_protocol: 15-PGDH-luciferase fusion gene reporter induction, V9m cells
Type: cell-based
measurement_context: read-out: V9M reporter activity ([…]), […]; % induction over basal level; Table 17; read-out: V9M reporter activity (7.5 μM)
Rule: activation at […] of 20% or more gives 1 (yes); anything lower gives 0 (no).

Prompt line: Would you say CCOc1ccccc1N(CC(=O)Nc1ccccc1Br)S(=O)(=O)c1ccc(C)cc1 [compound 771074] shows activation at […] at minimum 20%?
Response line: 1 (yes)

Prompt line: Please indicate if the recorded activation at […] for COc1ccc(OC)c(N(CC(=O)Nc2cccc(Cl)c2)S(=O)(=O)c2ccc(OC)c(OC)c2)c1 [compound 785254] meets or exceeds 20%.
Response line: 0 (no)

Prompt line: Reported activation at […] reaches at least 20% for COc1ccc(NC(=O)CN(c2ccccc2OC)S(C)(=O)=O)cc1 [compound 920847] ?
Response line: 0 (no)

Prompt line: API: above_or_equal(metric=activation at […], cutoff=20%) for item COc1ccc(OC)c(N(CC(=O)Nc2ccccc2Br)S(=O)(=O)c2ccc(OC)c(OC)c2)c1 [compound 924740]
Response line: 0 (no)

Prompt line: Is reported activation at […] greater than or equal to 20% here: COc1ccc(N(CC(=O)Nc2ccc(C(=O)O)cc2)S(=O)(=O)c2ccccc2)cc1 [compound 742790]
Response line: 1 (yes)

Prompt line: Does the molecule O=C(CN(c1ccccc1)S(=O)(=O)c1ccccc1)Nc1ccccn1 [compound 414183] have recorded activation at […] that is 20% or more?
Response line: 0 (no)

Prompt line: For this molecule, is measured activation at […] 20% or higher? O=C(CN(c1ccccn1)S(=O)(=O)c1ccccc1)Nc1ccccc1 [compound 543512]
Response line: 1 (yes)

Prompt line: I'd appreciate it if you could say whether COc1ccccc1N(CC(=O)Nc1ccc(F)c(Cl)c1)S(=O)(=O)c1ccccc1 [compound 537833] has activation at […] at least equal to 20%.
Response line: 0 (no)

----------
Test system: 15-PGDH luciferase fusion construct in LS174T reporter cell line
assay_protocol: 15-PGDH-luciferase fusion gene reporter induction, LS174T cells
Type: cell-based
measurement_context: Homo sapiens, read-out: LS174T reporter activity ([…]), […], % increased luciferase activity over basal level, read-out: LS174T reporter activity (7.5 uM)
measure: activation at […] (%)
The reply should be a number in %, with the unit left off.

activation at […] recorded for this compound, CCCCC(=O)c1sc2nc(-c3cccs3)cc(-c3ccccc3)c2c1N , is 20.6

CS(=O)(=O)c1sc2nc(-c3cccs3)cc(-c3ccccc3)c2c1N yielded activation at […] of -6.58

The compound listed as CCOC(=O)c1sc2nc(-c3cccs3)cc(-c3ccc(F)cc3)c2c1N has a reported activation at […] of 3.91

----------
System: 15-PGDH luciferase fusion construct in Vaco503 reporter cell line
assay_protocol: 15-PGDH-luciferase fusion gene reporter induction, V503 cells
Type: cell-based
measurement_context: read-out: V503 reporter activity ([…]), […]; % induction over basal level; Table 17; read-out: V503 reporter activity (2.5 μM)
Would you mind telling me the reported activation at […] of each entry?
Just the number plus its unit, please.

The recorded activation at […] for entry COc1ccc(OC)c(N(CC(=O)Nc2ccc(I)cc2C)S(=O)(=O)c2ccccc2)c1 [compound 1003012] equals 34.4%

Sure, the documented activation at […] for CCOC(=O)c1ccc(NC(=O)CN(c2cc(OC)ccc2OC)S(=O)(=O)c2ccc(OC)c(OC)c2)cc1 [compound 1003132] is 15.4%

Notebook: COc1ccc(N(CC(=O)Nc2ccc(Br)cc2)S(=O)(=O)c2ccccc2)c(OC)c1 [compound 785161] , activation at […] read as 56.7%

What the record says about COc1ccc(N(CC(=O)Nc2ccccc2Br)S(=O)(=O)c2ccc(C)cc2)c(OC)c1 [compound 771138] : activation at […] is 34.4%

// recorded activation at […] for COc1ccc(S(=O)(=O)N(CC(=O)Nc2ccccc2)c2ccccc2)cc1 [compound 474738] : 17%

# compound COc1ccc(N(CC(=O)N/N=C/c2cccnc2)S(=O)(=O)c2ccccc2)c(OC)c1 [compound 396087] ; its activation at […] = 17.2%
